pIC50 values recorded for Acetylcholinesterase (Electrophorus electricus, UniProt O42275)
Notebook: values listed as pIC50 are -log10 of the concentration (mol/L).

Ask: Answer with the recorded pIC50 for the compound listed here: CCN(CCCNC(=O)COc1ccc(-c2cc(=O)c3c(O)c(OC)c(OC)cc3o2)cc1)Cc1ccccc1OC
Reply: 4.95

Ask: Answer with the recorded pIC50 for the compound listed here: CCN(CCCCNC(=O)COc1ccc(-c2cc(=O)c3c(OC)c(OC)c(OC)cc3o2)cc1)Cc1ccccc1
Reply: 4.84

Ask: Answer with the recorded pIC50 for the compound listed here: CCN(CCCCCCNC(=O)COc1ccc(-c2cc(=O)c3c(O)c(OC)c(OC)cc3o2)cc1)Cc1ccccc1OC
Reply: 4.93

Ask: Answer with the recorded pIC50 for the compound listed here: CCN(CCNC(=O)COc1ccc(-c2cc(=O)c3c(O)c(OC)c(OC)cc3o2)cc1)Cc1ccccc1OC
Reply: 4.85

Ask: Answer with the recorded pIC50 for the compound listed here: COc1cc2oc(-c3ccc(OCC(=O)NCCN(C)Cc4ccccc4)cc3)cc(=O)c2c(OC)c1OC
Reply: 4.75

Ask: Answer with the recorded pIC50 for the compound listed here: COc1ccccc1CN(C)CCCCNC(=O)COc1ccc(-c2cc(=O)c3c(OC)c(OC)c(OC)cc3o2)cc1
Reply: 4.74

Ask: Answer with the recorded pIC50 for the compound listed here: COc1ccccc1CN(C)CCCCCCNC(=O)COc1ccc(-c2cc(=O)c3c(OC)c(OC)c(OC)cc3o2)cc1
Reply: 4.79

Ask: Answer with the recorded pIC50 for the compound listed here: CCN(CCCCCCNC(=O)COc1ccc(-c2cc(=O)c3c(OC)c(OC)c(OC)cc3o2)cc1)Cc1ccccc1
Reply: 4.48

Ask: Answer with the recorded pIC50 for the compound listed here: CCN(CCCNC(=O)COc1ccc(-c2cc(=O)c3c(OC)c(OC)c(OC)cc3o2)cc1)Cc1ccccc1
Reply: 4.73

Ask: Answer with the recorded pIC50 for the compound listed here: CCN(CCCCNC(=O)COc1ccc(-c2cc(=O)c3c(O)c(OC)c(OC)cc3o2)cc1)Cc1ccccc1OC
Reply: 4.80

Ask: Answer with the recorded pIC50 for the compound listed here: COc1ccccc1CN(C)CCCCNC(=O)COc1ccc(-c2cc(=O)c3c(O)c(OC)c(OC)cc3o2)cc1
Reply: 4.77

Ask: Answer with the recorded pIC50 for the compound listed here: CCN(CCNC(=O)COc1ccc(-c2cc(=O)c3c(OC)c(OC)c(OC)cc3o2)cc1)Cc1ccccc1
Reply: 4.79

Ask: Answer with the recorded pIC50 for the compound listed here: COc1cc2oc(-c3ccc(OCC(=O)NCCCCN(C)Cc4ccccc4)cc3)cc(=O)c2c(OC)c1OC
Reply: 4.86

Ask: Answer with the recorded pIC50 for the compound listed here: COc1cc2oc(-c3ccc(OCC(=O)NCCCN(C)Cc4ccccc4)cc3)cc(=O)c2c(OC)c1OC
Reply: 4.63

Ask: Answer with the recorded pIC50 for the compound listed here: COc1ccccc1CN(C)CCCNC(=O)COc1ccc(-c2cc(=O)c3c(O)c(OC)c(OC)cc3o2)cc1
Reply: 4.81

Ask: Answer with the recorded pIC50 for the compound listed here: CCN(CCCCCCNC(=O)COc1ccc(-c2cc(=O)c3c(OC)c(OC)c(OC)cc3o2)cc1)Cc1ccccc1OC
Reply: 4.75
